Data origin, for the record: paper PMC8448162

measurementProtocol: clinical
Design: species or system human
runParameters: human, in vivo, half-life
Positions of bridges follow the written chain, without caps; N, C: chain ends. Non-standard residues stand in square brackets, D forms with d. Residues, ends and D or L forms follow the SMILES beside them. *: point of attachment. X1 = NC[C@@H](CC(=O)*)c1cccc(Cl)c1; Dab = NCC[C@H](N)C(=O)O; Dap = NC[C@H](N)C(=O)O

| compound | half-life |
| --- | --- |
| CC(C)C[C@@H]1NC(=O)[C@@H](Cc2ccccc2)NC(=O)[C@H](CCN)NC(=O)[C@@H](NC(=O)[C@H](CN)NC(=O)[C@@H](NC(=O)C[C@H](CN)c2cccc(Cl)c2)[C@@H](C)O)CCNC(=O)[C@H]([C@@H](C)O)NC(=O)[C@H](CCN)NC(=O)[C@H](CCN)NC1=O [SPR206] (X1-T[Dap][Dab][Dab][dF]L[Dab][Dab]T; lactam 3-C (inferred)) | 2.4 to 4.1 h |

* * *

measurementProtocol: clinical
Design: species or system human
runParameters: human, in vivo, iv, 25 mg, Vz
Positions of bridges follow the written chain, without caps; N, C: chain ends. Non-standard residues stand in square brackets, D forms with d. Residues, ends and D or L forms follow the SMILES beside them. *: point of attachment. X1 = NC[C@@H](CC(=O)*)c1cccc(Cl)c1; Dab = NCC[C@H](N)C(=O)O; Dap = NC[C@H](N)C(=O)O

| compound | unitText | Vd |
| --- | --- | --- |
| CC(C)C[C@@H]1NC(=O)[C@@H](Cc2ccccc2)NC(=O)[C@H](CCN)NC(=O)[C@@H](NC(=O)[C@H](CN)NC(=O)[C@@H](NC(=O)C[C@H](CN)c2cccc(Cl)c2)[C@@H](C)O)CCNC(=O)[C@H]([C@@H](C)O)NC(=O)[C@H](CCN)NC(=O)[C@H](CCN)NC1=O [SPR206] (X1-T[Dap][Dab][Dab][dF]L[Dab][Dab]T; lactam 3-C (inferred)) | L | 23.5 |

* * *

measurementProtocol: clinical
Design: species or system human
runParameters: human, in vivo, 25 mg, Vz
Positions of bridges follow the written chain, without caps; N, C: chain ends. Non-standard residues stand in square brackets, D forms with d. Residues, ends and D or L forms follow the SMILES beside them. *: point of attachment. X1 = NC[C@@H](CC(=O)*)c1cccc(Cl)c1; Dab = NCC[C@H](N)C(=O)O; Dap = NC[C@H](N)C(=O)O

| molecule | Vd / L |
| --- | --- |
| CC(C)C[C@@H]1NC(=O)[C@@H](Cc2ccccc2)NC(=O)[C@H](CCN)NC(=O)[C@@H](NC(=O)[C@H](CN)NC(=O)[C@@H](NC(=O)C[C@H](CN)c2cccc(Cl)c2)[C@@H](C)O)CCNC(=O)[C@H]([C@@H](C)O)NC(=O)[C@H](CCN)NC(=O)[C@H](CCN)NC1=O [SPR206] (X1-T[Dap][Dab][Dab][dF]L[Dab][Dab]T; lactam 3-C (inferred)) | 18.9 |

* * *

measurementProtocol: clinical
Design: species or system human
runParameters: human, in vivo, iv, 300 mg, Half-life
Positions of bridges follow the written chain, without caps; N, C: chain ends. Non-standard residues stand in square brackets, D forms with d. Residues, ends and D or L forms follow the SMILES beside them. *: point of attachment. X1 = NC[C@@H](CC(=O)*)c1cccc(Cl)c1; Dab = NCC[C@H](N)C(=O)O; Dap = NC[C@H](N)C(=O)O
measuredMetric: half-life (h)

| compound | measuredMetric | numericResult |
| --- | --- | --- |
| CC(C)C[C@@H]1NC(=O)[C@@H](Cc2ccccc2)NC(=O)[C@H](CCN)NC(=O)[C@@H](NC(=O)[C@H](CN)NC(=O)[C@@H](NC(=O)C[C@H](CN)c2cccc(Cl)c2)[C@@H](C)O)CCNC(=O)[C@H]([C@@H](C)O)NC(=O)[C@H](CCN)NC(=O)[C@H](CCN)NC1=O [SPR206] (X1-T[Dap][Dab][Dab][dF]L[Dab][Dab]T; lactam 3-C (inferred)) | half-life | 4.1 |

* * *

measurementProtocol: clinical
runParameters: human, in vivo, 25 mg, CLR (renal clearance)
Positions of bridges follow the written chain, without caps; N, C: chain ends. Non-standard residues stand in square brackets, D forms with d. Residues, ends and D or L forms follow the SMILES beside them. *: point of attachment. X1 = NC[C@@H](CC(=O)*)c1cccc(Cl)c1; Dab = NCC[C@H](N)C(=O)O; Dap = NC[C@H](N)C(=O)O

| molecule | unitText | CL renal |
| --- | --- | --- |
| CC(C)C[C@@H]1NC(=O)[C@@H](Cc2ccccc2)NC(=O)[C@H](CCN)NC(=O)[C@@H](NC(=O)[C@H](CN)NC(=O)[C@@H](NC(=O)C[C@H](CN)c2cccc(Cl)c2)[C@@H](C)O)CCNC(=O)[C@H]([C@@H](C)O)NC(=O)[C@H](CCN)NC(=O)[C@H](CCN)NC1=O [SPR206] (X1-T[Dap][Dab][Dab][dF]L[Dab][Dab]T; lactam 3-C (inferred)) | mL/min | 4 |

* * *

measurementProtocol: clinical
Parameters: species or system human
runParameters: human, in vivo, 50 mg, Vz
Positions of bridges follow the written chain, without caps; N, C: chain ends. Non-standard residues stand in square brackets, D forms with d. Residues, ends and D or L forms follow the SMILES beside them. *: point of attachment. X1 = NC[C@@H](CC(=O)*)c1cccc(Cl)c1; Dab = NCC[C@H](N)C(=O)O; Dap = NC[C@H](N)C(=O)O

| compound | Vd [L] |
| --- | --- |
| CC(C)C[C@@H]1NC(=O)[C@@H](Cc2ccccc2)NC(=O)[C@H](CCN)NC(=O)[C@@H](NC(=O)[C@H](CN)NC(=O)[C@@H](NC(=O)C[C@H](CN)c2cccc(Cl)c2)[C@@H](C)O)CCNC(=O)[C@H]([C@@H](C)O)NC(=O)[C@H](CCN)NC(=O)[C@H](CCN)NC1=O [SPR206] (X1-T[Dap][Dab][Dab][dF]L[Dab][Dab]T; lactam 3-C (inferred)) | 21.5 |

* * *

measurementProtocol: clinical
runParameters: human, in vivo, 300 mg, CLR (renal clearance)
Positions of bridges follow the written chain, without caps; N, C: chain ends. Non-standard residues stand in square brackets, D forms with d. Residues, ends and D or L forms follow the SMILES beside them. *: point of attachment. X1 = NC[C@@H](CC(=O)*)c1cccc(Cl)c1; Dab = NCC[C@H](N)C(=O)O; Dap = NC[C@H](N)C(=O)O
measuredMetric: CL renal (mL/min)

| compound | measuredMetric | numericResult |
| --- | --- | --- |
| CC(C)C[C@@H]1NC(=O)[C@@H](Cc2ccccc2)NC(=O)[C@H](CCN)NC(=O)[C@@H](NC(=O)[C@H](CN)NC(=O)[C@@H](NC(=O)C[C@H](CN)c2cccc(Cl)c2)[C@@H](C)O)CCNC(=O)[C@H]([C@@H](C)O)NC(=O)[C@H](CCN)NC(=O)[C@H](CCN)NC1=O [SPR206] (X1-T[Dap][Dab][Dab][dF]L[Dab][Dab]T; lactam 3-C (inferred)) | CL renal | 35.5 |

* * *

measurementProtocol: clinical
Design: species or system human
runParameters: human, in vivo, iv, 200 mg, AUC0–8
Positions of bridges follow the written chain, without caps; N, C: chain ends. Non-standard residues stand in square brackets, D forms with d. Residues, ends and D or L forms follow the SMILES beside them. *: point of attachment. X1 = NC[C@@H](CC(=O)*)c1cccc(Cl)c1; Dab = NCC[C@H](N)C(=O)O; Dap = NC[C@H](N)C(=O)O
measuredMetric: AUC(0-t)

| compound | result |
| --- | --- |
| CC(C)C[C@@H]1NC(=O)[C@@H](Cc2ccccc2)NC(=O)[C@H](CCN)NC(=O)[C@@H](NC(=O)[C@H](CN)NC(=O)[C@@H](NC(=O)C[C@H](CN)c2cccc(Cl)c2)[C@@H](C)O)CCNC(=O)[C@H]([C@@H](C)O)NC(=O)[C@H](CCN)NC(=O)[C@H](CCN)NC1=O [SPR206] (X1-T[Dap][Dab][Dab][dF]L[Dab][Dab]T; lactam 3-C (inferred)) | 34500 ng·h/mL |

* * *

measurementProtocol: clinical
Parameters: species or system human
runParameters: human, in vivo, 150 mg, AUC0–48
Positions of bridges follow the written chain, without caps; N, C: chain ends. Non-standard residues stand in square brackets, D forms with d. Residues, ends and D or L forms follow the SMILES beside them. *: point of attachment. X1 = NC[C@@H](CC(=O)*)c1cccc(Cl)c1; Dab = NCC[C@H](N)C(=O)O; Dap = NC[C@H](N)C(=O)O

| compound | AUC(0-t) |
| --- | --- |
| CC(C)C[C@@H]1NC(=O)[C@@H](Cc2ccccc2)NC(=O)[C@H](CCN)NC(=O)[C@@H](NC(=O)[C@H](CN)NC(=O)[C@@H](NC(=O)C[C@H](CN)c2cccc(Cl)c2)[C@@H](C)O)CCNC(=O)[C@H]([C@@H](C)O)NC(=O)[C@H](CCN)NC(=O)[C@H](CCN)NC1=O [SPR206] (X1-T[Dap][Dab][Dab][dF]L[Dab][Dab]T; lactam 3-C (inferred)) | 55500 ng·h/mL |
